Reference for the values: the supplement of paper PMC13380429

System: Caco-2
Protocol description: cell viability relative to DMSO; higher = less toxic
Conditions: 72 h; 10 nM
// reported cell viability per item
Supply the numeric figure in %, leaving out any unit text.

Below: 5 molecules and their reported cell viability.
[N-]=[N+]=N[C@]1(CO)O[C@@H](n2ccc(N)nc2=O)[C@H](O)[C@@H]1O :: 96.2
COCCc1ccc(OCC(O)CNC(C)C)cc1 (stereo not drawn) :: 136
CC/C(=C(/CC)c1ccc(O)cc1)c1ccc(O)cc1 :: 87.3
CCCC(C)C1(CC)C(=O)NC(=O)NC1=O (stereo not drawn) :: 90.8
O=c1[nH]c(=O)n([C@H]2CCCO2)cc1F (racemic) :: 103

Q: What value of cell viability on Caco-2 does `CCOc1ccc(Cc2cc([C@@H]3O[C@H](SC)[C@@H](O)[C@H](O)[C@H]3O)ccc2Cl)cc1` have?
Ans: 102

Q: Another: `COC(=O)[C@H](CC(C)C)NC(=O)[C@@H](N)CC(C)C`
Ans: 102

* * *

Tested on: Caco-2
Protocol description: cell viability relative to DMSO; higher = less toxic
Conditions: 72 h; 10000 nM
Reported property: cell viability (%)
# number only, unit % dropped from output

O=C(Nc1cc(-c2ccccc2)nn1-c1ccccc1)c1ccc([N+](=O)[O-])cc1 :: 96.6

Q: Which cell viability value belongs to `O=C(O)Cc1cccc(OCCCN(Cc2cccc(C(F)(F)F)c2Cl)CC(c2ccccc2)c2ccccc2)c1` ?
Ans: 77.7

Q: Can you check CC1=C(C(=O)OC2CCCCC2)C(c2ccc([N+](=O)[O-])cc2)C2=C(CC(C)(C)CC2=O)N1 (centres undefined) next?
Ans: 19.1

Q: // query: O=c1[nH]c(=O)n([C@H]2CCCO2)cc1F (racemic)
Ans: 100

* * *

Tested on: Vero E6
Protocol description: drug sensitivity score (DSS) for viability; higher = more toxic; extreme values may be limits of the assay
Conditions: 72 h
Form field: drug sensitivity score (one value per entry).

Some solved cases for reference:
O=C(O)C(Cl)Cl [dichloroacetate] :: 0
CN(C)CCc1c[nH]c2ccc(Cn3cncn3)cc12 :: 0
CC1=C(CC(=O)O)c2cc(F)ccc2/C1=C\c1ccc([S+](C)[O-])cc1 (stereo not drawn) :: 0
COCCc1ccc(OCC(O)CNC(C)C)cc1 (stereo not drawn) :: 0
C=CC(=O)Nc1cc(Nc2nccc(-c3cn(C)c4ccccc34)n2)c(OC)cc1N(C)CCN(C)C :: 10.4

Q: # query: drug sensitivity score of entry `Cc1ccc(S(=O)(=O)NCc2ccccc2)cc1`
Ans: 0

Q: Now try `CN[C@@H](C)CC1CCCCC1` .
Ans: 0

Q: Same again, this time with `Cc1cccc(COc2cccc(/C=C3\C(=O)NN(c4ccccc4)C3=O)c2)c1`
Ans: 0.2

* * *

Tested on: HepG2
Protocol description: cell viability relative to DMSO; higher = less toxic
Conditions: 72 h; 100 nM
Measured cell viability, listed per entry for reference.
Field: numeric (%). Do not append units.

# example entries with known answers
NC(=O)c1nc(Nc2ccccc2)sc1NC(=O)C1CCCCC1 [UNC3230] :: 88.1
NC(=O)c1ccc(-c2nc(-c3ccccn3)c(-c3ccc4c(c3)OCO4)[nH]2)cc1 :: 103
CCN1C[C@H](C)n2c(c(O)c3c(=O)n(Cc4ccc(F)c(Cl)c4)nc(C(=O)NC)c32)C1=O [MK-2048] :: 93.9
O=C(Nc1ccc(C(O)(C(F)(F)F)C(F)(F)F)cc1)c1ccc(C(F)(F)F)cc1 [SR-1078] :: 101
COc1ccc(C(=O)Nc2sc3c(c2C(N)=O)CCCC3)cc1OC [TCS-359] :: 89.6
Nc1nc(O)c2[nH]nnc2n1 [azaguanine-8] :: 100

Q: // query cell viability value for entry CCOc1cc2ncc(C#N)c(Nc3ccc(OCc4cccc(F)c4)c(Cl)c3)c2cc1NC(=O)/C=C/CN(C)C [HKI-357]
Ans: 102

Q: Now consider Cc1ccc(C(=O)c2ccc(CC(=O)O)n2C)cc1 [tolmetin] and answer again.
Ans: 100

Q: Also CCOc1ccc2nc(SCCN3CCOCC3)[nH]c2c1 [afobazole] , if possible.
Ans: 107
